Target: Ubiquitin-conjugating enzyme E2 N (Homo sapiens)
Assay: Ubc13/Uev1a ubiquitination inhibitors, SAR follow-up, biochemical, TR-FRET, set 2 (AID 485351)
Details: in vitro Ubc13-Uev1a ubiquitination
The source made the active and inactive calls. How the calls were made is not given here.
Outcome field: choose from 1 = active, 0 = inactive

Worked cases, answers included:
[
  {
    "MOLECULE": "CCCCn1c(NC(=O)c2cccc(Cl)c2)c(C#N)c2nc3ccccc3nc21",
    "CLASS_NAME": 1
  },
  {
    "MOLECULE": "COC(=O)C=C(NC(CO)(CO)CO)C(=O)OC",
    "CLASS_NAME": 1
  },
  {
    "MOLECULE": "COC(=O)C1=C(C(=O)OC)C2([C@@H](C)Nc3ccc(Cl)cc3)C=CC1O2 (stereo partly specified)",
    "CLASS_NAME": 0
  }
]

# next molecule below
Recorded test outcome, item COC(=O)C1=C(C(=O)OC)C2([C@H](Cc3ccccc3)Nc3ccc(Cl)cc3)C=CC1O2 (stereo partly specified)
0

* * *

Biological target: Ubiquitin-conjugating enzyme E2 N (Homo sapiens) (UniProt P61088)
Sequence (P61088 whole entry, looked up): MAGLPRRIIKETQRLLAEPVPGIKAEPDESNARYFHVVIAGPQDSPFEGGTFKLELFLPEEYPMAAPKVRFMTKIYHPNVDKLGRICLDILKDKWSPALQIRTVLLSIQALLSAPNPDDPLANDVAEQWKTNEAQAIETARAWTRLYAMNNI
Test: Ubc13/Uev1a ubiquitination inhibitors, SAR follow-up, biochemical, TR-FRET, set 2 (AID 485351)
Conditions: in vitro Ubc13-Uev1a ubiquitination
The source made the active and inactive calls. No rule for the calls is given here.
Outcome field: choose from active, inactive

Recorded test outcome, item COC(=O)C1=C(C(=O)OC)C2([C@@H](Cc3ccccc3)Nc3ccccc3)C=CC1O2 (some centres not stated)
inactive

Recorded test outcome, item CCCCn1c(NC(=O)c2ccc(F)cc2)c(S(=O)(=O)c2ccc(C)cc2)c2nc3ccccc3nc21
active

Recorded test outcome, item COC(=O)C1=C(C(=O)OC)C2([C@H](C)Nc3ccc(Cl)cc3)C=CC1O2 (some centres not stated)
active

Recorded test outcome, item C=CCC(Nc1ccccc1)C12C=CC(O1)C(C(=O)OC)=C2C(=O)OC (configuration not stated)
inactive

Recorded test outcome, item COC(=O)C1=C(C(=O)OC)C2([C@H](Cc3ccc(C)cc3)Nc3ccccc3)C=CC1O2 (some centres not stated)
inactive

Recorded test outcome, item COC(=O)[C@@H]1C2CCC([C@@H](Cc3ccccc3)Nc3ccccc3)(O2)[C@@H]1C(=O)OC (some centres not stated)
inactive

Recorded test outcome, item C=CC[C@@H](Nc1ccc(OC)cc1)C12C=CC(O1)C(C(=O)OC)=C2C(=O)OC (some centres not stated)
active

Recorded test outcome, item Nc1c(C(=O)NCc2ccco2)c2nc3ccccc3nc2n1Cc1ccccc1
active

* * *

Biological target: Ubiquitin-conjugating enzyme E2 N (Homo sapiens)
Experiment: Ubc13/Uev1a ubiquitination inhibitors, SAR follow-up, biochemical, TR-FRET, set 2 (AID 485351)
Conditions: in vitro Ubc13-Uev1a ubiquitination
Calls of active or inactive are those of the source. How the calls were made is not given here.
Outcome field: choose from 1 (yes) for active, 0 (no) for inactive

[
  {
    "COMPOUND": "N#Cc1c(NC(=O)c2ccccc2Cl)n(Cc2ccccc2)c2nc3ccccc3nc12",
    "CLASS_NAME": "1 (yes)"
  },
  {
    "COMPOUND": "COC(=O)C1=C(C(=O)OC)C2([C@@H](C)Nc3ccc(C)cc3)C=CC1O2 (some centres undefined)",
    "CLASS_NAME": "0 (no)"
  },
  {
    "COMPOUND": "CCCN1C(=O)C(NC(C)=O)c2cc(OC)ccc21 (centres undefined)",
    "CLASS_NAME": "0 (no)"
  }
]

Recorded test outcome, item COC(=O)C1=C(C(=O)OC)C2([C@@H](Cc3ccccc3)Nc3ccc(Cl)cc3)C=CC1O2 (some centres undefined)
0 (no)
